This collection of values is drawn from patent US10112951B2.

- assayed target: PDE1B (Homo sapiens, UniProt Q01064)
- Construct: full-length human PDE1B (NP_000915.1); His (C); made in house; host or cells: Sf9 (pIEX4)
- assay: Ca2+-calmodulin dependent PDE enzyme assay (SPA), PDE1B
- Assay type: biochemical
- run parameters: [3H]cAMP 47 nM; enzyme 0.074 nM; Ca2+/calmodulin buffer pH 7.5; read-out: IC50 (nM) of Example 1, PDE 1B
readout name: IC50
Reply with a number, then the unit it belongs to.

According to the records, this compound "O=c1c2nnc(C3(C4CC4)CC3)n2c2c(n1CC1CC1)CCCC2" displays IC50 of 4.91 nM
